Tested on: HCC-2998 colon
measurement-description: NCI tumour cell line growth inhibition, 48 h
Reported TGI by item:
outcome-measure: TGI

>>> print(df.to_string())
                                   compound  measurement_target     result
0  C=CC1=C(C)C(/C=c2\[nH]/c(=C/c3[nH]c(CC4NC(=O)C(C)/C4=C\C)c(C)c3CCC(=O)O)c(CC(=O)O)c2C)=NC1=O (stereo not given)      HCC-2998 colon   > 100 µM
1  COc1cc2[nH]c3c(c2cc1OC)CCN[C@@]31CC[C@@]2(CC3c4c(cc(OC)c(O)c42)CCN3C)C[C@@H]1OC (stereo not given in full)      HCC-2998 colon  > 83.4 µM
2       COC1(OC)CC(CO)(COc2cc(Cl)nc(N)n2)C1      HCC-2998 colon   > 100 µM
3  CCOC(=O)c1ccc2nc3n(c2c1)C(c1c(F)cccc1F)SC3 (stereo not given)      HCC-2998 colon   > 100 µM
4  COc1c(C(N)=O)cc(-c2ccc(Cl)cc2)cc1-c1ccc(S(N)(=O)=O)cc1      HCC-2998 colon    > 25 µM

###

compounds and their reported TGI
Test system: HCT-116 colon
measurement-description: NCI tumour cell line growth inhibition, 48 h
outcome-measure: TGI

>>> df
                                   compound  outcome_measure    result
0              NC(=O)NNC/C(Cl)=C(\Cl)C(=O)O              TGI  > 100 µM
1  COC(=O)/C1=C/C=C\C[C@@]2(C)CC(c3ccoc3)OC(=O)[C@@H]2CC[C@H]1C (stereo partly specified)              TGI   > 25 µM
2  COc1ccc(C(C2=C(O)CC(C)OC2=O)C2=C(O)CC(C)OC2=O)cc1 (stereo unspecified)              TGI  > 100 µM
3  CCSC12OC3(CCCCCN3C1=O)C1C(=O)N(c3ccccc3)C(=O)C12 (stereo unspecified)              TGI  > 100 µM
4        N=c1ncn(C/C=C/c2ccccc2)c2nc[nH]c12              TGI  > 100 µM
5  CCC[N+](C)(C)CCCNC(=O)c1c(O)c2ccccc2[nH]c1=O              TGI  > 100 µM

###

System: HT29 colon
measurement-description: NCI tumour cell line growth inhibition, 48 h
Overview of recorded TGI for various compounds
outcome-measure: TGI (µM)

In [3]: df
Out[3]:
                    structure_smiles_string  measurement_target  reading_unit  limit_sign  measured_number
0  CCN1CCN(C(=O)[C@]23CC[C@@H](C)[C@H](C)[C@@H]2C2=CC[C@@H]4[C@@]5(C)CCC(=O)C(C)(C)[C@@H]5CC[C@@]4(C)[C@]2(C)CC3)CC1          HT29 colon            µM           =             2.05
1          CN(C(=O)C(C)(C)C)c1ccccc1I(=O)=O          HT29 colon            µM           >              100
2  [N-]=[N+]=C(C(=O)CN1CCCC1=O)S(=O)(=O)c1ccccc1          HT29 colon            µM           >              100
3   O=c1c2cccnc2oc2c(Cl)cc(-c3nn[nH]n3)cc12          HT29 colon            µM           >              100
4            Nc1ccc(C#Cc2ccccc2C#CCCCCO)cc1          HT29 colon            µM           =             26.1
